System: Mycobacterium tuberculosis
Experiment: Antitubercular activity against Mycobacterium tuberculosis H37Ra after 5 days by luminescence assay
Assay type: functional
Details: 120 h
Listed compounds paired with reported MIC
Supply the numeric figure in µg/mL, leaving out any unit text.

Below, 5 compounds whose answers are already recorded.
{"columns": ["compound", "unit-descriptor", "MIC"],
 "data": [
  ["O=C(Nc1cc(O)cc(Cc2ccccc2)c1)c1ccco1", "µg/mL", 10],
  ["CCC1CCC(C(=O)Nc2cc(O)cc(Cc3ccccc3)c2)CC1 (stereo not given)", "µg/mL", 2.5],
  ["Cc1ccc(C(=O)Nc2cc(O)cc(Cc3ccccc3)c2)cc1", "µg/mL", 1.25],
  ["Cc1nnsc1C(=O)Nc1cc(O)cc(Cc2ccccc2)c1", "µg/mL", 10],
  ["O=C(Nc1cc(O)cc(Cc2ccccc2)c1)C1CCCC1", "µg/mL", 2.5]
]}

Task: Fill in the blank: the reported MIC of CC(C)(C)C(=O)Nc1cc(O)cc(Cc2ccccc2)c1 is ____.
Result: 2.5

Task: Record: O=C(Nc1cc(O)cc(Cc2ccccc2)c1)c1ccccc1
Result: 5

Task: Further, for O=C(Nc1cc(O)cc(Cc2ccccc2)c1)C1CC1 ?
Result: 5

Task: Then O=C(Nc1cc(O)cc(Cc2ccccc2)c1)c1ccc(C(F)(F)F)cc1 ?
Result: 5

Task: Same thing, different compound: NNC(=O)c1ccncc1 [ISONIAZID]
Result: 0.1
